test-description: NOD1 signaling inhibitors, primary screen, cell-based, luminescence, uHTS (AID 1578);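 note: HEK-293T reporter cells stimulated with the NOD1 agonist gamma-tri-DAP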
assay-setup: NOD1-driven NF-kB luciferase reporter cells, at 4 µM, active compounds read high
The campaign covered roughly 290,000 compounds. About 3,000 (1%) were called active. Only a selection was taken, and actives are over-represented in it overall.
Give inhibition for every item shown.
Numbers only, in %.

[
  {
    "entry-smiles": "O=c1c(Cl)c(N2CCOCC2)cnn1-c1nc2ccccc2[nH]1",
    "readout-unit": "%",
    "inhibition": -19.5
  },
  {
    "entry-smiles": "Cc1nn(-c2ccccc2)c(=O)c2ccccc12",
    "readout-unit": "%",
    "inhibition": -47.4
  },
  {
    "entry-smiles": "O=c1c(Cl)c(NCCCO)cnn1-c1nc2ccccc2[nH]1",
    "readout-unit": "%",
    "inhibition": 10.3
  },
  {
    "entry-smiles": "O=c1c2ccccc2cnn1-c1nc2ccccc2[nH]1",
    "readout-unit": "%",
    "inhibition": 99.7
  },
  {
    "entry-smiles": "O=c1c(Cl)c(N2CCCCC2)cnn1-c1nc2ccccc2[nH]1",
    "readout-unit": "%",
    "inhibition": 74.8
  }
]

# context switch: different molecule, same inhibition
Cc1nn(-c2nc3ccccc3[nH]2)c(N)c1-c1ccccc1 yielded inhibition of -44.1

----------
test-description: NOD1 signaling inhibitors, primary screen, cell-based, luminescence, uHTS (AID 1578);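 note: HEK-293T reporter cells stimulated with the NOD1 agonist gamma-tri-DAP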
assay-setup: NOD1-driven NF-kB luciferase reporter cells, at 4 µM, active compounds read high
Among all 290,000 compounds or so, about 3,000 (1%) were called active. Only a selection was taken, and actives are over-represented in it overall.
Give inhibition for every item shown.
Give bare numbers, in %.

[
  {
    "molecule": "Cc1nc(C)c(-c2csc(Nc3ccc(N)cc3)n2)s1",
    "inhibition [%]": 16.7
  }
]

I have 5 molecules here; please give me inhibition for each one.
1. COc1ccc(NC(=O)NCc2ccco2)cc1OC
2. CC[n+]1c(/C=C/c2c[nH]c3ccccc23)ccc2cc(C)ccc21
3. O=C(N/C(=C/c1ccc(Br)cc1)C(=O)N1CCCC1=O)c1ccco1
4. Cc1ccc(C(C)C)c(OCC(O)CN2CC(C)OC(C)C2)c1 (stereo unspecified)
5. O=C(Oc1ccc(Br)cc1C(=S)N1CCOCC1)c1ccc(F)cc1

Result:
1. -24.4
2. 79.9
3. 63.5
4. 5.4
5. -9.9

I have 3 molecules here; please give me inhibition for each one.
1. Cc1nn(Cc2c(F)c(F)c(F)c(F)c2F)c(C)c1NC(=O)c1c([N+](=O)[O-])c(C)nn1C
2. O=C(N/C(=C/c1ccc(Br)cc1)C(=O)N1CCOCC1)c1ccco1
3. CCC(=O)N1CCc2cc(S(=O)(=O)Nc3ccccc3C)ccc21

Result:
[10.1, -24.4, 3.4]

I have 7 molecules here; please give me inhibition for each one.
1. Cc1cccc(NC(=S)/N=C(\N)Nc2nc(C)c3cc(C)ccc3n2)c1
2. CC/C(=N\NC(=O)c1ccc(Br)cc1)c1ccccc1
3. CC(C)(Oc1ccc(Cl)cc1)C(=O)Nc1ccc2oc(=O)ccc2c1
4. CCCNCc1cc(OC)c(OCC(=O)Nc2ccccc2)cc1Br
5. Cc1ccc(OCC(O)CNC2CCCC2)c(C)c1 (stereo unspecified)
6. O=C(c1ccc([N+](=O)[O-])cc1)N1CCSC1c1ccccc1 (stereo unspecified)
7. COC(=O)CCc1ccc(O)cc1

Result:
1. 23.1
2. -30.9
3. -7.5
4. -23.4
5. 0
6. -13.8
7. -24
